Give apparent KD of MS2 coat protein for every item shown.
# Tested on: MS2 coat protein
# experimental protocol: apparent KD of MS2 coat protein; designed switch direction (-1 OFF switch, 1 ON switch): -1; higher = weaker reporter binding
# condition info: input ligand: microRNA oligo, concentration not stated
Just the number please, in nM, no unit attached.

Problem: Quickly give me recorded apparent KD of MS2 coat protein for UUUUUAUAUGAAGGAUAUACUUAACAUGAGGAUCACCCAUGUGGUGUUGUGAGUGAGUGAGUUUAGUAGAAGGUCAAGUCUUUU [JMF's solution 36] (Eterna round: R96, puzzle: Exclusion NG 2)
Result: 383

Problem: Specify reported apparent KD of MS2 coat protein for the sequence shown: UAUAUAUAGUAAGGAUAUGUAUUAAUUGUAUAAACAGAAGGUACUGACAUGAGGAUCACCCAUGUUUUAGUGUGGGCAUGUAGA [JMF's solution 81] (Eterna round: R96, puzzle: Exclusion NG 1)
Result: 71.7

Problem: Give a short answer stating reported apparent KD of MS2 coat protein for UUUAAUUUAAUUAAGAUCACAUGAGGAUCACCCAUGUAAUUAUAGGAUAUCAGCUCGAUUAGAGCUGAGAAGGAUAAUUACAUA [ExNG3/5-A1] (Eterna round: R96, puzzle: Exclusion NG 3) .
Result: 75.1

* * *

Assignment: determine reported apparent KD of MS2 coat protein for the given sequences.
# Test system: MS2 coat protein
# experimental protocol: apparent KD of MS2 coat protein; higher = weaker reporter binding
# condition info: Eterna round: R107; input ligand: theophylline 2 mM
Answer with a number only, understood to be in nM.

Problem: Annotate the sequence GAGUUCCUGAGAGAUACCAGUGAAGCCACAUGAGGAUCACCCAUGUCCCUCACUCCGGCCCACCCUUGGCAGCUCGAAAGAUGGA [Exclusion Theophylline B GF 21] with its measured apparent KD of MS2 coat protein.
Result: 403

Problem: Look up and report measured apparent KD of MS2 coat protein for this entry: GCUAGGUCUACGGCCGCCACUAGACGUGGGUAAGACAUGAGGAUCACCCAUGUACUACAGGCGGAUAGGACCGGGUAGACCUAGC [SSTB NP+V+V2 #13 +-Same Structure]
Result: 101

Problem: // fetch apparent KD of MS2 coat protein given entry CUCCCGUGGUCGGCCGCCACUGGAGGCCUUGCGCGACAUGAGGAUCACCCAUGUGGGCCCGGCGUCAGGACCGGGAUCGCGUGAG [#1 Same State - Tryptophan B Attempt #11 (HarryS)]
Result: 16.2

Problem: Return the recorded apparent KD of MS2 coat protein value; entry: UGUAUGUGAUCUGAUACCAGCUAGCGGAAACGCAAGCUUGAGGAUCACCCAAGUGGAAUAAGCCCUUGGCAGCAGAUCGCAUACU [Denovo 5 #StaticStem #AlternativeMS2]
Result: 15.8

Problem: Retrieve apparent KD of MS2 coat protein measured for `UGUAUGUGAUCUGAUACCAGAGUGAAUAAACCUGAGGAUCACCCUGGUACGCGAAAGCGACUCCCUUGGCAGCAGAUCGCAUACU` and print it.
Result: 21.8

Problem: Please give measured apparent KD of MS2 coat protein of the following entry: AUAUAUACAUGAGGAUCACCCAUGUUAUUUCGAGGACCGGUACGGCCGCCACUCGAUAGAGUAGAAGUAACAUUUGUUAGAUGUA [JR_SSTryptoA_Sub011]
Result: 22

Problem: Given UUGGAUAUGCGAAGGAGCGGGAAAUAUAUAUAUAUAAUCCUAACAUGAGGAUCACCCAUGUCCCAGGUAGGUCGCGCAUAUUUGG [12.H] , respond with its apparent KD of MS2 coat protein.
Result: 70.7

Problem: Determine from records and report apparent KD of MS2 coat protein for ACAUGAGGAUCACCCAUGUGAAGCAGGGUACGAGGACCGGUACGGCCGCCACUCGAGCAUUAUAACGAGUGAAUGGCAACGAUGU [whbob_Ex_trypto A_2s16]
Result: 17.4

Problem: For the sequence GGGAAAGGAGAAGAUACCAGCCGCCUCACAAGUCUACACUACAUGAGGAUCACCCAUGUGGGCCCUUGGCAGCUUGACCGCGAAA [theeternabot_exclusion_MS2_Theo_B_20] , report apparent KD of MS2 coat protein.
Result: 42

Problem: For the sequence CACUACAUGAGGAUCACCCAUGUAUACUGACGAGGACCGGUACGGCCGCCACUCGAACCGAAACCGACUUCAUUCUGUGUACCAU [theeternabot_sameState_MS2_Trp_A_26] , report apparent KD of MS2 coat protein.
Result: 19.3

Problem: Name the recorded apparent KD of MS2 coat protein of the sequence listed here: UAACAUGAGGCGGCCGCCACUCAACAUGAGGAUCACCCAUGUAUGUGUAAACAUGAGGAUCACCCGAGGACCGGGCCCUUGUAAU [Same State Tryptophan B 4]
Result: 39.5
